Collected from the literature: IC50 of various molecules toward Beta-secretase 1 (Homo sapiens, UniProt P56817).
Express the result in nM but write the number alone.

Bench note, Beta-secretase 1 (Homo sapiens, UniProt P56817): NC1=N[C@@]2(CCO1)c1cc(-c3cccnc3)ccc1Oc1c(F)cc(C3=CCOCC3)cc12 , IC50 reads 4.8

Bench note, Beta-secretase 1 (Homo sapiens, UniProt P56817): [2H]C1([2H])OC(N)=N[C@]12c1cc(-c3cccnc3)ccc1C[C@]21CC[C@@H](OC)[C@H](C)C1 , IC50 reads 161

Bench note, Beta-secretase 1 (Homo sapiens, UniProt P56817): COc1ccc(C(=O)Nc2ccc3c(c2)[C@@]2(CCOC(N)=N2)c2cc(-c4cncc(F)c4)nc(F)c2O3)nc1 , IC50 reads 1.4

Bench note, Beta-secretase 1 (Homo sapiens, UniProt P56817): NC1=N[C@@]2(COC1)c1cc(-c3cccnc3F)ccc1Oc1ncc(N3CC[C@@H](F)C3)cc12 , IC50 reads 1.4

Bench note, Beta-secretase 1 (Homo sapiens, UniProt P56817): O=C([C@@H]1CNC[C@H]1c1ccccc1Br)N1CCCC1Cc1ccccc1 (some centres unmarked) , IC50 reads 67000

====

Collected from the literature: pIC50 of various molecules toward Beta-secretase 1 (Homo sapiens, UniProt P56817).
Keep in mind that pIC50 stands for -log10 of concentration in molar terms.

Some solved entries appear below for comparison.
CC1(COc2cc(F)c3c(c2)[C@]2(CCOC(N)=N2)c2cc(-c4cccnc4)ccc2O3)COC1; 8.20
NC1=N[C@@]2(c3ccc(F)cc3F)CO[C@@H](c3ccc(F)cc3F)C[C@H]2CS1; 7.41

Please find the next molecule below.
Bench note, Beta-secretase 1 (Homo sapiens, UniProt P56817): COc1cnc(C(=O)Nc2ccc3c(c2)[C@@]2(CCSC(N)=N2)c2cc(N4CCOCC4)cc(F)c2O3)cn1 , pIC50 reads 7.82

====

Collected from the literature: IC50 of various compounds toward Beta-secretase 1 (Homo sapiens).
Express the result in nM but write the number alone.

Some solved entries appear below for comparison.
Cn1cc(C2(Cc3ccccc3)CCc3ccccc32)nc1N (centres unmarked); 12000
NC1=N[C@@]2(COC1)c1cc(-c3cc(F)ccc3F)ccc1Oc1ncc(-c3ccncc3)cc12; 3.6
NC1=N[C@@]2(CCS1)c1cc(-c3cccnc3F)ccc1Oc1c(F)cc(C3=CCCOC3)cc12; 1.4
NC1=N[C@@]2(c3ccc(F)cc3F)CO[C@@H](c3ccccc3F)C[C@H]2CS1; 86
COc1cnc(C(=O)Nc2ccc3c(c2)[C@@]2(CCOC(N)=N2)c2cc(Br)cnc2O3)cn1; 47.6

Bench note, Beta-secretase 1 (Homo sapiens): CC1(C#Cc2cc(F)c3c(c2)[C@]2(COCC(N)=N2)c2cc(-c4cccnc4F)ccc2O3)COC1 , IC50 reads 0.5

Bench note, Beta-secretase 1 (Homo sapiens): NC1=N[C@@]2(CCS1)c1cc(-c3cccnc3F)ccc1Oc1c(F)cc(C3=CCOCC3)cc12 , IC50 reads 2.7

Bench note, Beta-secretase 1 (Homo sapiens): COCc1cccc([C@H]2C[C@H]3CSC(N)=N[C@@]3(c3ccc(F)cc3F)CO2)c1 , IC50 reads 161

====

Collected from the literature: IC50 of various molecules toward Beta-secretase 1 (Homo sapiens, UniProt P56817).

Some solved entries appear below for comparison.
NC1=N[C@@]2(COC1)c1cc(-c3cc(F)ccc3F)ccc1Oc1ncc(C3=CCOCC3)cc12; 1.3 nM
N#Cc1ccc(C(=O)Nc2ccc3c(c2)[C@@]2(CCOC(N)=N2)c2cc(C4=CCCOC4)nc(F)c2O3)nc1; 2 nM
C[C@H]1C[C@H]2[C@@H](C(F)(F)F)OC(N)=N[C@@]2(c2nc(NC(=O)c3ccc(OC(F)F)cn3)cs2)CO1; 112 nM
NC1=N[C@@]2(CCO1)c1cc(-c3cccnc3)ccc1Oc1c2cc(-c2ccnc(F)c2)nc1F; 35 nM
CC(C)Cn1cc(C2(c3cccc(-c4cncnc4)c3)N=C(N)N(C)C2=O)cn1 (stereo not shown); 10 to 100 nM

Bench note, Beta-secretase 1 (Homo sapiens, UniProt P56817): [2H]C1([2H])OC(N)=N[C@]12c1cc(-c3ccccn3)ccc1C[C@@]21CC[C@H](OC)[C@@H](C)C1 , IC50 reads 770 nM

Bench note, Beta-secretase 1 (Homo sapiens, UniProt P56817): CCn1cc(C2(c3cccc(-c4cccnc4F)c3)N=C(N)N(C)C2=O)cc1C(=O)NCc1ccc(F)cc1 (stereo not shown) , IC50 reads 110 to 1000 nM

====

Collected from the literature: IC50 of various compounds toward UniProt P56817.
I'd appreciate it if you marked entries fulfilled when IC50 is lower than 80 nM and not fulfilled when it is not.

Before answering, review these 10 worked examples.
[2H]C1([2H])OC(N)=N[C@]12c1cc(-c3cncc(C4CC4)c3)ccc1C[C@@]21CC[C@H](OC)[C@@H](C)C1; fulfilled
NC1=N[C@@]2(c3c(F)cccc3F)CO[C@@H](C3CC3)C[C@H]2CS1; not fulfilled
NC1=N[C@@]2(CCO1)c1cc(NC(=O)c3cnc(O)cn3)ccc1Oc1ncc(Br)cc12; not fulfilled
NC1=N[C@@]2(c3ccc(F)cc3F)CO[C@@H](c3nc(C(F)(F)F)co3)C[C@H]2CS1; not fulfilled
N#Cc1cc([C@]23CO[C@@H](CO)C[C@H]2CSC(N)=N3)c(F)cc1F; not fulfilled
NC1=NC2(c3cc(-c4cccnc4F)ccc3Oc3cnc(Cl)cc32)c2ncccc2O1 (racemic); not fulfilled
Cc1cc(OC(F)F)cnc1C(=O)Nc1csc([C@]23CO[C@@H](C)C[C@H]2COC(N)=N3)n1; not fulfilled
CC(C)c1cccc2c1CCC[C@]21CNC[C@H]1C(=O)N1CCC(c2ccccc2)CC1; fulfilled
NC1=N[C@@]2(CCO1)c1cc(NC(=O)c3ccc(Cl)cn3)ccc1Oc1ncc(Br)cc12; fulfilled
CC(C)(C)C#Cc1cc2c(cn1)Oc1ccc(-c3cncc(F)c3)cc1[C@@]21CCOC(N)=N1; fulfilled

## Input Determine if [2H]C1([2H])OC(N)=N[C@]12c1cc(-c3cccc(Cl)c3)ccc1C[C@]21CC[C@@H](OC)[C@H](C)C1 shows IC50 strictly lower than 80 nM.
## Output fulfilled

## Input Determine if NC1=NC(c2ccncc2)(c2cccc(-c3cccnc3F)c2)C2=NCCCN12 (stereo not shown) shows IC50 strictly lower than 80 nM.
## Output not fulfilled

====

pIC50: −log10 of the molar value.
Collected from the literature: pIC50 of various compounds toward Beta-secretase 1 (Homo sapiens).
Response key: 1 means pIC50 >= 8; -1 means pIC50 < 8.

CN1C(=O)C(c2ccc(OC(F)F)cc2)(c2cnn(CCF)c2)N=C1N (stereo not shown); -1

## Input Can [2H]C1([2H])OC(N)=NC12c1cc(/C=N/OC3CCC3)ccc1C[C@]21CC[C@@H](OC)CC1 (stereo partly shown) be said to have pIC50 at or above 8?
## Output -1

## Input Can CCC(=O)c1cc([C@@]2(c3cccc(-c4cccnc4F)c3)N=C(N)N(C)C2=O)cn1CC1CC1 be said to have pIC50 at or above 8?
## Output -1

## Input Can Cc1cc([C@H]2C[C@H]3[C@@H](C)SC(N)=N[C@@]3(c3cc(C#N)ccc3F)CO2)on1 be said to have pIC50 at or above 8?
## Output -1

## Input Can [2H]C1([2H])OC(N)=N[C@]12c1cc(-c3cc(F)cc(C#N)c3)ccc1C[C@]21CC[C@@H](OC)[C@H](C)C1 be said to have pIC50 at or above 8?
## Output -1

## Input Can NC1=N[C@]2(c3cc(-c4cccnc4F)ccc3Oc3c2cc(C2=CCCOC2)nc3F)c2cccnc21 be said to have pIC50 at or above 8?
## Output 1

## Input Can NC1=N[C@@]2(CCO1)c1cc(NC(=O)c3ccc(Cl)cn3)ccc1Oc1c2cc(C2=CCOCC2)nc1F be said to have pIC50 at or above 8?
## Output 1

====

Collected from the literature: IC50 of various compounds toward Beta-secretase 1 (Homo sapiens).
Express the result in nM but write the number alone.

Some solved entries appear below for comparison.
NC1=N[C@@]2(COC1)c1cc(-c3cncc(F)c3)ccc1Oc1cnc(Cl)cc12; 32.8
CCOc1cc2c(cn1)Oc1ccc(-c3cccc(F)c3)cc1[C@@]21COCC(N)=N1; 4.3
CC(C)(C)C#Cc1ccc2c(c1)[C@@]1(COCC(N)=N1)c1cc(C#CC(C)(C)C)cnc1O2; 5.4
NC1=N[C@]2(CCO1)c1cc(-c3cccnc3F)ccc1Oc1c2cc(-c2cccnc2)nc1F; 489
C[C@H]1C[C@H]2[C@@H](CF)SC(N)=N[C@@]2(c2cc(CNCC(F)(F)F)ccc2F)CO1; 150
NC1=N[C@@]2(CCS1)c1cc(NC(=O)c3ccc(F)cn3)ccc1Oc1c2cc(C2=CCOCC2)nc1F; 1

So, COc1cnc(C(=O)Nc2ccc3c(c2)[C@@]2(CCSC(N)=N2)c2cc(C4=CCCOC4)nc(F)c2O3)cn1 ? Its IC50 was 1.8

So, CC#Cc1cncc(-c2ccc3c(c2)[C@@]2(COCC(N)=N2)c2cc(C4=CCOCC4)cc(F)c2O3)c1 ? Its IC50 was 0.7

So, NC1=N[C@]2(COC1)c1cc(C3=CCOCC3)ccc1Oc1ccc(-c3cccnc3F)cc12 ? Its IC50 was 0.6

So, C[C@@H]1OC[C@@]2(N=C1N)c1cc(-c3cccnc3F)ccc1Oc1cnc(Cl)cc12 ? Its IC50 was 90.8

So, COc1cc(F)c2c(c1)C1(CCOC(N)=N1)c1cc(Br)ccc1O2 (racemic) ? Its IC50 was 15400

So, CC(C)(F)COc1cc(F)c2c(c1)[C@@]1(CCSC(N)=N1)c1cc(-c3cccnc3F)ccc1O2 ? Its IC50 was 863
